System: P388
Experiment: Inhibitory activity against Murine […]
Type: functional, cell-based
Conditions: Mus musculus
Give pIC50 for every item shown.
One number for each entry, as −log10 of the molar value.

# example entries with known answers
COc1cccc2c1C(=O)c1c(O)c3c(c(O)c1C2=O)C[C@@](O)(C(=O)CO)C[C@@H]3O[C@H]1C[C@H](N)[C@H](O)[C@H](C)O1 [DOXORUBICIN] ... 7.51
Cc1cc(C)c2nc3c(C(=O)NCCCN(C)CCCNC(=O)c4cccc5cc6cc(C)cc(C)c6nc45)cccc3cc2c1 ... 6.68
CCc1cccc2cc3cccc(C(=O)NCCCN(C)CCCNC(=O)c4cccc5cc6cccc(CC)c6nc45)c3nc12 ... 6.77

State recorded pIC50 for all listed compounds.
1. CN(CCCNC(=O)c1cccc2cc3ccc(F)cc3nc12)CCCNC(=O)c1cccc2cc3ccc(F)cc3nc12
2. CN(CCCNC(=O)c1cccc2cc3cc(C(C)(C)C)ccc3nc12)CCCNC(=O)c1cccc2cc3cc(C(C)(C)C)ccc3nc12
3. CN(CCCNC(=O)c1cccc2cc3cc(N(C)C)ccc3nc12)CCCNC(=O)c1cccc2cc3cc(N(C)C)ccc3nc12
4. CN(CCCNC(=O)c1cccc2cc3ccccc3nc12)CCCNC(=O)c1cccc2cc3ccccc3nc12
5. CN(CCCNC(=O)c1cccc2cc3cc(-c4ccccc4)ccc3nc12)CCCNC(=O)c1cccc2cc3cc(-c4ccccc4)ccc3nc12
6. CN(CCCNC(=O)c1cccc2cc3cc(Cl)ccc3nc12)CCCNC(=O)c1cccc2cc3cc(Cl)ccc3nc12

Data returned:
7.62
5.75
6.01
6.89
6.15
6.77

Below are 2 compounds. Give each one its pIC50.
1. CN(CCCNC(=O)c1cccc2cc3cccc(N(C)C)c3nc12)CCCNC(=O)c1cccc2cc3cccc(N(C)C)c3nc12
2. CN(CCCNC(=O)c1cc(Cl)cc2cc3ccccc3nc12)CCCNC(=O)c1cc(Cl)cc2cc3ccccc3nc12

Data returned:
[5.67, 6.95]

Below is a list of compounds. For each, state its recorded pIC50.
1. Cc1ccc(C(=O)NCCCN(C)CCCNC(=O)c2ccc(C)c3cc4ccccc4nc23)c2nc3ccccc3cc12
2. Cc1ccc2cc3cccc(C(=O)NCCCN(C)CCCNC(=O)c4cccc5cc6ccc(C)cc6nc45)c3nc2c1
3. CN(CCCNC(=O)c1cccc2cc3cccc(C(F)(F)F)c3nc12)CCCNC(=O)c1cccc2cc3cccc(C(F)(F)F)c3nc12
4. CC(C)c1cccc2cc3cccc(C(=O)NCCCN(C)CCCNC(=O)c4cccc5cc6cccc(C(C)C)c6nc45)c3nc12

Data returned:
1. 6.77
2. 6.46
3. 6.62
4. 5.56
